tgt: DltA enzyme (Streptococcus agalactiae serotype III)
Construct: His-tag (from pET100 vector) (N); made in house; host or cells: E. coli BL21 (DE3) Star
Sequence (Q8VM67 whole entry): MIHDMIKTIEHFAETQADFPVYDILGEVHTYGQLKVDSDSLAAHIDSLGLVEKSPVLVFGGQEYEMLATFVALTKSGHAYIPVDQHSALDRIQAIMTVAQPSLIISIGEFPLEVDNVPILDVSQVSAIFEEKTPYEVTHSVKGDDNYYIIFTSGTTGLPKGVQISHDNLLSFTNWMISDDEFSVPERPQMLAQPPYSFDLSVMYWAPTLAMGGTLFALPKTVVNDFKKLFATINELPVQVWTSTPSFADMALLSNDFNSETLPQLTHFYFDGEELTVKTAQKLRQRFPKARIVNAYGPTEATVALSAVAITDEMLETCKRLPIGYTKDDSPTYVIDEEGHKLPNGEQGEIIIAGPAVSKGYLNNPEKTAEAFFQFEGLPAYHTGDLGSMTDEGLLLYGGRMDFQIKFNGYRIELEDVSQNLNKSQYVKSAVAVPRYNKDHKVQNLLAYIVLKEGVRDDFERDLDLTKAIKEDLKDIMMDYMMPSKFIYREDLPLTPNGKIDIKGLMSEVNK
test.protocol: DltA HTS assays (luminescent / fluorescent), inhibition of DltA enzymatic activity in vitro
Type: biochemical, S. agalactiae
condition.context: Table 1; DltA inhibition, HTS assays of method 1; read-out: IC50
Source text: The compounds effect on DltA enzyme has been based on the measure of the inhibition of DltA activity in vitro. To this end, a recombinant protein Dlta was expressed and purified after cloning of the gene of S. agalatiae as described below: Methods 1: DltA HTS Assays The assay described below makes use of dithiothreitol (DTT) instead of DltC as reactive thiol in the catalyzed reaction. […] They are easily amenable to miniaturized formats and fast readouts as required by HTS. […]
Criterion: IC50 strictly less than 0.6 µM. Met: True. Not met: False.

Challenge: In the record for OCCCNc1nc2cc(C(F)(F)F)ccc2n2c(-c3cc(O)n[nH]3)cnc12 [Example 37] , is IC50 less than 0.6 µM?
Response given: True

Challenge: In the record for COc1ccc(-n2cnc3c(NCCCO)nc4cc(C(F)(F)F)ccc4c32)cc1 [Example 24] , is IC50 less than 0.6 µM?
Response given: False

Challenge: In the record for OCCCNc1nc2cc(-c3ccccc3C(F)(F)F)ccc2n2ccnc12 [Example 5] , is IC50 less than 0.6 µM?
Response given: True

Challenge: In the record for OCCCNc1nc2cc(F)c(F)cc2n2ccnc12 [Example 57] , is IC50 less than 0.6 µM?
Response given: False

Challenge: In the record for OCCCNc1nc2cc(C(F)(F)F)ccc2n2c(-c3cc(CO)n[nH]3)cnc12 [Example 49] , is IC50 less than 0.6 µM?
Response given: True
